Property: log10(Fold of selectivity); scope: individual molecules
- study system: Human Cbl-b (residues 40-426) (Homo sapiens (Human), UniProt Q13191)
- Sequence (Q13191 40-426): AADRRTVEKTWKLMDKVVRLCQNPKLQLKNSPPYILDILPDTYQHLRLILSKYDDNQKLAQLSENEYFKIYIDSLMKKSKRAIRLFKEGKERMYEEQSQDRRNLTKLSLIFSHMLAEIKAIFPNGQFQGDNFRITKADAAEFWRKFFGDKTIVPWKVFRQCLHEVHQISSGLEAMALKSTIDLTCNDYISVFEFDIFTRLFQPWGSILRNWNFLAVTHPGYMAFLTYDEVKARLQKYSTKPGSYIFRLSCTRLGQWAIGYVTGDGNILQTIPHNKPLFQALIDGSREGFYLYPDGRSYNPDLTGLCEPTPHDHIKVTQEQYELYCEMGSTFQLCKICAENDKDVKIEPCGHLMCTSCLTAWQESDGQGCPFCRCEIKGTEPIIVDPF
- assay overview: Cbl-b SPR assay
- Type: binding
- test settings: C-cbl SPR Kd vs Cbl-b SPR Kd
readout type: log10(Fold of selectivity) (log10 of the value in ×)

{"molecule": "Cn1cnnc1C1(c2cccc(N3Cc4c(cc([C@@H](O)CO)cc4C(F)(F)F)C3=O)c2)CCC1 (single isomer, unassigned) [Compound 301]", "log10(Fold of selectivity)": 0.45}
{"molecule": "Cn1cnnc1[C@H](CC1CCCC1)c1cccc(N2Cc3c(cc(CNC4(C)CCC4)cc3C(F)(F)F)C2=O)c1 [Compound 249]", "log10(Fold of selectivity)": 0.84}
{"molecule": "Cn1cnnc1C1(c2cccc(N3Cc4c(cc(CNC5(C)CCC5)cc4C(F)(F)F)C3=O)c2)CC(OC(F)(F)F)C1 (single isomer, unassigned) [Compound 351]", "log10(Fold of selectivity)": 1.20}
{"molecule": "Cn1cnnc1C(c1cccc(N2Cc3c(cc(CNC4(C)CCC4)cc3C(F)(F)F)C2=O)c1)C1(F)CSC1 (stereo not drawn) [Compound 462]", "log10(Fold of selectivity)": 1.00}
{"molecule": "C[C@H]1CCCN(Cc2cc3c(c(C(F)(F)F)c2)CN(c2cccc(C4(c5nncn5C)CC5(COC5)C4)c2)C3=O)C1 (single isomer, unassigned) [Compound 66]", "log10(Fold of selectivity)": 0.70}
{"molecule": "CCOc1cc(N2Cc3c(cc(CNC4(C)CCC4)cc3C(F)(F)F)C2=O)cc([C@]2(c3nncn3C)C[C@H](OC)C2)c1 [Compound 202]", "log10(Fold of selectivity)": 0.72}
{"molecule": "CCOc1cc(N2Cc3c(cc(CNC4(C)CCC4)cc3C(F)(F)F)C2=O)cc([C@]2(c3nncn3C)C[C@@H](OC)C2)c1 [Compound 203]", "log10(Fold of selectivity)": 0.52}
{"molecule": "C[C@H](NC1(C)CCC1)c1cc2c(c(C(F)F)c1)CN(c1cccc([C@@H](c3nncn3C)C3COC3)c1)C2=O (single isomer, unassigned) [Compound 407]", "log10(Fold of selectivity)": 1.20}
{"molecule": "Cn1cnnc1[C@H](c1cccc(N2Cc3c(cc([C@H](NC4(C)CCC4)C4CCC4)cc3C(F)(F)F)C2=O)c1)C1COC1 (single isomer, unassigned) [Compound 434]", "log10(Fold of selectivity)": 1.11}
{"molecule": "CO[C@H]1C[C@](c2cccc(N3Cc4c(cc([C@@H](N)C(C)(C)C)cc4C(F)(F)F)C3=O)c2)(c2nncn2C)C1 (single isomer, unassigned) [Compound 361]", "log10(Fold of selectivity)": 1.32}
{"molecule": "Cn1cnnc1[C@]1(c2cccc(N3Cc4c(cc(CNC5(C)CCC5)cc4C(F)F)C3=O)c2)C[C@H](F)C1 [Compound 247]", "log10(Fold of selectivity)": 0.74}
{"molecule": "C[C@@H](NC1(C)CCC1)c1cc2c(c(C(F)F)c1)CN(c1cccc([C@H](c3nncn3C)C3COC3)c1)C2=O (single isomer, unassigned) [Compound 412]", "log10(Fold of selectivity)": 1.20}
{"molecule": "CO[C@H]1C[C@@](c2cccc(N3Cc4ccc(CNC5(C)CCC5)cc4C3=O)c2)(c2nncn2C)C1 [Compound 448]", "log10(Fold of selectivity)": 0.76}
{"molecule": "Cn1cnnc1[C@H](c1cccc(N2Cc3c(Cl)cc(CNC4(C)CCC4)cc3C2=O)c1)[C@H]1C[C@H](F)C1 (single isomer, unassigned) [Compound 320]", "log10(Fold of selectivity)": 0.74}
{"molecule": "CO[C@H]1C[C@@](c2cc(NC3CCCC3)cc(N3Cc4c(cc(CNC5(C)CCC5)cc4C(F)(F)F)C3=O)c2)(c2nncn2C)C1 [Compound 218]", "log10(Fold of selectivity)": 1.00}
{"molecule": "CO[C@H]1C[C@](c2cccc(N3Cc4c(cc(CNC5(C)CC5)cc4C(F)(F)F)C3=O)c2)(c2nncn2C)C1 [Compound 475]", "log10(Fold of selectivity)": 1.11}
{"molecule": "COCC1(NCc2cc3c(c(C(F)(F)F)c2)CN(c2cccc([C@]4(c5nncn5C)C[C@H](OC)C4)c2)C3=O)CC1 [Compound 487]", "log10(Fold of selectivity)": 1.61}
{"molecule": "Cn1cnnc1[C@@H](c1cccc(N2Cc3c(cc(CNC4(C)CCC4)cc3C(F)(F)F)C2=O)c1)C1CC(=O)C1 (single isomer, unassigned) [Compound 114]", "log10(Fold of selectivity)": 0.32}
{"molecule": "COCC1(NCc2cc3c(c(C(F)(F)F)c2)CN(c2cccc([C@]4(c5nncn5C)C[C@H](OC)C4)c2)C3=O)CCC1 [Compound 495]", "log10(Fold of selectivity)": 1.08}
{"molecule": "CC(C)[C@](O)(c1cccc(N2Cc3c(cc(CNC4(C)CCC4)cc3C(F)(F)F)C2=O)c1)c1nncn1C [Compound 310]", "log10(Fold of selectivity)": 0.57}
{"molecule": "CC(=O)C1CC([C@@H](c2cccc(N3Cc4c(cc(CNC5(C)CCC5)cc4C(F)(F)F)C3=O)c2)c2nncn2C)C1 (single isomer, unassigned) [Compound 384]", "log10(Fold of selectivity)": 0.75}
{"molecule": "CO[C@H]1C[C@](c2cccc(N3Cc4c(cc(CN5CCC5)cc4C(F)(F)F)C3=O)c2)(c2nncn2C)C1 [Compound 480]", "log10(Fold of selectivity)": 1.04}
{"molecule": "Cn1cnnc1[C@@H](c1cccc(N2Cc3c(Cl)cc(CNC4(C)CCC4)cc3C2=O)c1)[C@H]1C[C@H](F)C1 (single isomer, unassigned) [Compound 318]", "log10(Fold of selectivity)": 0.98}
{"molecule": "CO[C@H]1C[C@](c2cc(NC3COC3)cc(N3Cc4c(cc(CNC5(C)CCC5)cc4C(F)(F)F)C3=O)c2)(c2nncn2C)C1 [Compound 234]", "log10(Fold of selectivity)": 1.00}

src = patent US12187709B2
